FYI, the data here is from paper PMC7229167.

Target: T1, Atypical chemokine receptor 2 variant V41A (ACKR2-V41A; rs2228467) (human, UniProt O00590 1-384, V41A)
T1 construct: Atypical chemokine receptor 2 (ACKR2), human, natural variant V41A (rs2228467), expressed on the surface of CHO-k1 cells; also called ACRK2-V41A; source: CHO-k1 cells, transfected (lipofectamine), G418 selected, enriched with anti-PE MicroBeads; on cells
T1 sequence (looked up): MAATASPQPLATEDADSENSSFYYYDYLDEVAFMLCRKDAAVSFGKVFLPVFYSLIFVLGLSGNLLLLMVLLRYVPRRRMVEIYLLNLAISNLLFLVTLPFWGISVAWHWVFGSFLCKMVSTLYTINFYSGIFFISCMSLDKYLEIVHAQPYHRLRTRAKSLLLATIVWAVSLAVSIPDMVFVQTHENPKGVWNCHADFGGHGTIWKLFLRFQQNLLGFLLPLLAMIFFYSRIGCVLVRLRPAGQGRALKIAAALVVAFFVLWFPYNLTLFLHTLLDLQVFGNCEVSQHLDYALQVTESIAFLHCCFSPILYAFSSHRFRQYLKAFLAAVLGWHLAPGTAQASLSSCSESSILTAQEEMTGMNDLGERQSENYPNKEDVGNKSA
Assay: flow cytometry on cells; competition: transfected CHO-k1 cells incubated with unconjugated chemokine at 37 °C for 45 minutes, then stained with anti-human ACKR2 polyclonal IgG and PE secondary; blockage = 100 minus percent of ACKR2-positive cells; titration with non-linear analysis for Kd
Conditions: one partner purified
RECORDED_METRIC: Kd (nM)
Express the result in nM but write the number alone.

Note to self: Kd recorded for Chemokine ligand 4 (CCL4), unconjugated (ligand, UniProt P13236 24-92, looked up, Chemokine ligand 4 (CCL4), unconjugated; also called unconjugated CCL4; source: bought: PEPROTECH, Cat #300-.9) APMGSDPPTACCFSYTARKLPRNFVVDYYETSSLCSQPAVVFQTKRSKQVCADPSESWVQEYVYDLELN was 2030
